The origin of these recorded values is PubChem BioAssay (NCATS).

Assay: A High-Content qHTS Against Drug Library for the Identification of Small Molecules that Inhibit DYT1 Early Onset Primary Dystonia-Associated Cell Pathology (AID 1645839)
Conditions: HEK293 Flp-In EGFP-delE TorsinA, punctate imaging, 48 h; series mostly up to 46.1 µM
Records with an inconclusive call do not appear. Calls of active or inactive are those of the source. The call rests on the fitted dose curve.
readout.kind: outcome

>>> df
                            compound_string    result
0  CC(=O)Oc1cccc2c1C(=O)c1c(OC(C)=O)cc(C(=O)O)cc1C2=O  inactive
1          O=C(O)CCC(=O)c1ccc(-c2ccccc2)cc1  inactive
2          COc1ccc2nc(NC(=O)Nc3ccccc3)sc2c1  inactive
3            O=C1c2ccccc2C(=O)c2c1ccc(O)c2O  inactive

* * *

Tested on: PAD
Experiment: qHTS profiling for inhibitors of Plasmodium falciparum proliferation (AID 504749); further: nearly all actives have a fitted effect of over 60% in size
Conditions: P. falciparum in erythrocytes, SYBR Green DNA, 72 h; series mostly up to 28.7 µM
Results filed as inconclusive are left out. Calls of active or inactive are those of the source. Calls follow the shape of the dose curve; as a rule, active = well fitted inhibition curve with a large enough effect; inconclusive = small, poorly fitted or top-dose-only effect; inactive = flat fitted curve, though single readings scatter.
Just give me one of these, please: active, inactive

query: Test call, this compound: CC(=O)[C@H]1CC[C@H]2[C@@H]3C=CC4=CC(=O)CC[C@@]4(C)[C@H]3CC[C@]12C
result: inactive

query: Test call, this compound: CN(C)c1ccc(C(=C2C=CC(=[N+](C)C)C=C2)c2c(O)c(S(=O)(=O)[O-])cc3cc(S(=O)(=O)O)ccc23)cc1
result: inactive

query: Test call, this compound: Cc1ccc(S(=O)(=O)NCl)cc1
result: inactive

query: Test call, this compound: O=C(O)CCC/C=C\C[C@@H]1[C@@H](/C=C/[C@@H](O)COc2cccc(Cl)c2)[C@H](O)C[C@@H]1O
result: inactive

query: Test call, this compound: O=C(O)c1ccc(OCCn2ccnc2)cc1
result: inactive

query: Test call, this compound: CC(C)(COP(=O)(O)OP(=O)(O)OC[C@H]1O[C@@H](n2cnc3c(N)ncnc32)[C@H](O)[C@@H]1OP(=O)(O)O)C(O)C(=O)NCCC(=O)NCCS (stereo partly specified)
result: inactive

query: Test call, this compound: CO/N=C(/C(=O)N[C@@H]1C(=O)N2C(C(=O)O)=C(COC(N)=O)CS[C@H]12)c1ccco1
result: inactive

query: Test call, this compound: Nc1ccc(N=Nc2ccccc2)c(N)n1
result: inactive

query: Test call, this compound: Cc1ccc(S(=O)(=O)O)cc1C
result: inactive

query: Test call, this compound: CCCCC[C@H](O)/C=C/[C@H]1[C@H](O)CC(=O)[C@@H]1C/C=C\CCCC(=O)O
result: inactive

query: Test call, this compound: CN[C@@H]1[C@H](O[C@H]2[C@H](O[C@H]3[C@H](O)[C@@H](O)[C@H](N=C(N)N)[C@@H](O)[C@@H]3N=C(N)N)O[C@@H](C)[C@]2(O)C=O)O[C@@H](CO)[C@H](O)[C@H]1O
result: inactive

query: Test call, this compound: O=C(Nc1ccc(O)cc1)c1ccccc1O
result: inactive

query: Test call, this compound: c1ccc2c(c1)Sc1ccccc1N2CCN1CCCC1
result: active

query: Test call, this compound: CC1C(=O)CC2C3(C)CCC2(C(C)C(=O)O)C(=O)C13 (stereo unspecified)
result: inactive

query: Test call, this compound: CCCCC(CC)COS(=O)(=O)O (stereo unspecified)
result: inactive

query: Test call, this compound: CCCCC(CC)CCC(CC(C)C)OS(=O)(=O)O (stereo unspecified)
result: inactive

query: Test call, this compound: Cc1nc(NS(=O)(=O)c2ccc(N)cc2)nc(C)c1Br
result: inactive

query: Test call, this compound: C[C@]12CC[C@@H]3c4ccc(OC(=O)c5ccccc5)cc4CC[C@H]3[C@@H]1CC[C@@H]2O
result: inactive

query: Test call, this compound: S=C1SCN(Cc2ccccc2)CN1Cc1ccccc1
result: inactive

query: Test call, this compound: CCCCCCCCCCCCCC(=O)OCC(COP(=O)([O-])OCC[N+](C)(C)C)OC(=O)CCCCCCCCCCCCC (stereo unspecified)
result: inactive

query: Test call, this compound: CN1C(=O)OC(C)(C)C1=O
result: inactive

* * *

Test: Cell Viability - LYMP2-009 (AID 968);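 further: cells exposed to compound for 24 h at 37 °C; nearly all actives have a fitted effect of over 55% in size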
Settings: LYMP2-009 lymphoblastoid cell viability; series mostly up to 92.2 µM
Results filed as inconclusive are left out. Active and inactive are the calls of the source. Calls follow the shape of the dose curve; as a rule, active = well fitted cell-killing curve with a large enough effect; inconclusive = small, poorly fitted or top-dose-only effect; inactive = flat fitted curve, though single readings scatter.
Just give me one of these, please: True (active), False (inactive)

query: Test call, this compound: C/C=C/C=C/C(=O)O
result: False

query: Test call, this compound: [O-][N+](=Nc1ccccc1)c1ccccc1
result: False

query: Test call, this compound: CC1=CC(=O)NS(=O)(=O)O1
result: False

query: Test call, this compound: Nc1ncnc2c1ncn2[C@H]1CC[C@@H](CO)O1
result: False

query: Test call, this compound: OC[C@H]1O[C@@H]2O[C@H]3[C@H](O)[C@@H](O)[C@@H](O[C@H]4[C@H](O)[C@@H](O)[C@@H](O[C@H]5[C@H](O)[C@@H](O)[C@@H](O[C@H]6[C@H](O)[C@@H](O)[C@@H](O[C@H]7[C@H](O)[C@@H](O)[C@@H](O[C@H]1[C@H](O)[C@H]2O)O[C@@H]7CO)O[C@@H]6CO)O[C@@H]5CO)O[C@@H]4CO)O[C@@H]3CO
result: False

query: Test call, this compound: Oc1ccc(/C=C/c2cc(O)cc(O)c2)cc1
result: False

query: Test call, this compound: Cc1ccc(S(=O)(=O)O)cc1C
result: False

query: Test call, this compound: CCOC(C)OCC
result: False

query: Test call, this compound: OB(O)O
result: False

query: Test call, this compound: O=c1n(CC2CO2)c(=O)n(CC2CO2)c(=O)n1CC1CO1 (stereo not given)
result: True

* * *

Test: qHTS assay to identify small molecule inhibitors of chordoma cells - UCH-2 (AID 1259356)
Settings: UCH-2 chordoma viability, CellTiter-Glo ATP luminescence, 48 h; series mostly up to 46.1 µM
Results filed as inconclusive are left out. Active and inactive are the calls of the source. Calls come from the whole dose curve; as a rule, active = well fitted cell-killing curve with a large enough effect; inconclusive = small, poorly fitted or top-dose-only effect; inactive = flat fitted curve, though single readings scatter.
Just give me one of these, please: active, inactive

query: Test call, this compound: COc1cc(NCCCC(C)N)c2ncccc2c1 (stereo not given)
result: active

query: Test call, this compound: OC[C@H]1O[C@@](CO)(O[C@H]2O[C@H](CO)[C@@H](O)[C@H](O)[C@H]2O)[C@@H](O)[C@@H]1O
result: inactive

query: Test call, this compound: CC(O)[C@@H]1NC(=O)[C@H](Cc2ccccc2)NC(=O)[C@H](C(C)O)NC(=O)[C@H](CCCCN)NC(=O)[C@H](Cc2c[nH]c3ccccc23)NC(=O)[C@H](Cc2ccccc2)NC(=O)[C@H](Cc2ccccc2)NC(=O)[C@H](CC(N)=O)NC(=O)[C@H](CCCCN)NC(=O)[C@@H](NC(=O)CNC(=O)[C@H](C)N)CSSC[C@@H](C(=O)O)NC(=O)[C@H](CO)NC1=O (stereo not given in full)
result: inactive

query: Test call, this compound: CCCCC/C=C\CCC(=O)N[C@H]1[C@H](Oc2c3cc4cc2Oc2ccc(cc2Cl)[C@@H](O[C@@H]2O[C@H](CO)[C@@H](O)[C@H](O)[C@H]2NC(C)=O)[C@@H]2NC(=O)[C@H](NC(=O)[C@@H]4NC(=O)[C@H]4NC(=O)[C@@H](Cc5ccc(c(Cl)c5)O3)NC(=O)[C@H](N)c3ccc(O)c(c3)Oc3cc(O)cc4c3)c3ccc(O)c(c3)-c3c(O[C@H]4O[C@H](CO)[C@@H](O)[C@H](O)[C@@H]4O)cc(O)cc3[C@@H](C(=O)O)NC2=O)O[C@H](CO)[C@@H](O)[C@@H]1O
result: inactive

query: Test call, this compound: CC1=CCC2CC1C2(C)C (stereo not given)
result: inactive

* * *

Test: qHTS profiling for inhibitors of Plasmodium falciparum proliferation (AID 504749); further: nearly all actives have a fitted effect of over 60% in size;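 on activity, negative = inhibition: 0% = DMSO vehicle and full inhibition = artemisinin control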
Conditions: P. falciparum in erythrocytes, SYBR Green DNA, 72 h; at 28.7 µM (top of the series); parasite line A
Results filed as inconclusive are left out.
For each entry below, report its activity, negative = inhibition value.
Give the value in % but do not write % after it.

query: So what's the measured activity, negative = inhibition for this one? CC(=O)NCCCS(=O)(=O)O
result: 2.58

query: So what's the measured activity, negative = inhibition for this one? O=S(=O)(O)CCCS(=O)(=O)O
result: -6.14

query: So what's the measured activity, negative = inhibition for this one? CC(O)CN(C)C (stereo unspecified)
result: 11.7

query: So what's the measured activity, negative = inhibition for this one? COc1cc2c(cc1OC)[C@@H](Cc1cc(OC)c(OC)c(OC)c1)[N+](C)(CCCOC(=O)CC/C=C/CCC(=O)OCCC[N+]1(C)CCc3cc(OC)c(OC)cc3[C@H]1Cc1cc(OC)c(OC)c(OC)c1)CC2 (stereo partly specified)
result: 0.013

query: So what's the measured activity, negative = inhibition for this one? C[C@H]1O[C@@H](O[C@H]2[C@@H](O)C[C@H](O[C@H]3[C@@H](O)C[C@H](O[C@H]4CC[C@@]5(C)[C@H](CC[C@@H]6[C@@H]5C[C@@H](O)[C@]5(C)[C@@H](C7=CC(=O)OC7)CC[C@]65O)C4)O[C@@H]3C)O[C@@H]2C)C[C@H](O)[C@@H]1O
result: -10.9

query: So what's the measured activity, negative = inhibition for this one? COC(=O)C(CN)c1c[nH]c2ccc(OC)cc12 (stereo unspecified)
result: -3.75

query: So what's the measured activity, negative = inhibition for this one? COC(=O)c1ccccc1O
result: -0.0049

query: So what's the measured activity, negative = inhibition for this one? O=C(CCCN1CCC(C(=O)c2ccc(F)cc2)CC1)c1ccc(F)cc1
result: -20.7

query: So what's the measured activity, negative = inhibition for this one? Nc1ncnc2c1ncn2CCOCP(=O)(O)O
result: 14.6

query: So what's the measured activity, negative = inhibition for this one? CCCCC[C@H](O)/C=C/[C@H]1[C@H](O)CC(=O)[C@@H]1C/C=C\CCCC(=O)O
result: 7.21

query: So what's the measured activity, negative = inhibition for this one? CCN(CC)C(=S)S
result: -22.3
